- Test system: Ba-L K101E + K103N + V108VI + V179M + Y181C + E138Q
- protocolDetails: Antiviral activity, NNRTI-resistant virus K101E+K103N+V108VI+V179M+Y181C+E138Q
- Assay type: cell-based, HIV-1
- protocolConditions: Ba-L, * = K101E + K103N + V108VI + V179M + Y181C + E138Q
quantityMeasured: FC (*)

compound	observedValue
Cc1cc(C=CC#N)cc(C)c1Nc1nc(Nc2ccc(C#N)cc2)nc(N2CCCCC2)n1	>55
Cc1cc(/C=C/C#N)cc(C)c1Nc1nc(N)nc(Nc2ccc(C#N)cc2)n1	18
Cc1cc(C)c(Nc2ccnc(Nc3ccc(C#N)cc3)n2)c(C)c1 [TMC120, reference compound]	>500
Cc1cc(C=CC#N)cc(C)c1Nc1nc(Nc2ccc(C#N)cc2)nc(N2CCN(C)CC2)n1	37
Cc1cc(C=CC#N)cc(C)c1Oc1nc(Nc2ccc(C#N)cc2)nc(N2CCCCC2)n1	>47
Cc1cc(C=CC#N)cc(C)c1Nc1nc(Nc2ccc(C#N)cc2)nc(N(C)C)n1	78
Cc1cc(/C=C/C#N)cc(C)c1Nc1ccnc(Nc2ccc(C#N)cc2)n1 [TMC278, Rilpivirine, reference compound]	38
Cc1cc(C=CC#N)cc(C)c1Nc1nc(Nc2ccc(C#N)cc2)nc(NC(C)C)n1	85

Q: If you can, please state the reported FC (*) value of "Cc1cc(C=CC#N)cc(C)c1Nc1nc(N)nc(Nc2ccc(C#N)cc2)n1" .
A: 18

Q: If you can, please state the reported FC (*) value of "Cc1cc(/C=C\C#N)cc(C)c1Nc1nc(N)nc(Nc2ccc(C#N)cc2)n1" .
A: 214

Q: If you can, please state the reported FC (*) value of "CNc1nc(Nc2ccc(C#N)cc2)nc(Nc2c(C)cc(C=CC#N)cc2C)n1" .
A: 39

Q: If you can, please state the reported FC (*) value of "Cc1cc(C=CC#N)cc(C)c1Oc1nc(Nc2ccc(C#N)cc2)nc(N(C)C)n1" .
A: 231

###

Quick list: CC50 at 48 h per entry.
- protocolDetails: in vitro
- Format: cell-based
- protocolConditions: human, Cytotoxicity CC50 TZM-bI

sampleSmiles	observedValue
CNc1nc(Nc2ccc(C#N)cc2)nc(Oc2c(C)cc(C=CC#N)cc2C)n1	20 µM
Cc1cc(C=CC#N)cc(C)c1Nc1nc(Nc2ccc(C#N)cc2)nc(N2CCCCC2)n1	> 100 µM

Pending molecule:
Q: If you can, please state the reported CC50 at 48 h value of "Cc1cc(C=CC#N)cc(C)c1Oc1nc(Nc2ccc(C#N)cc2)nc(N2CCCCC2)n1" .
A: > 100 µM

###

- Test system: Ba-L K101E + K103N + V108VI + V179M + Y181C + E138Q
- protocolDetails: Antiviral activity, NNRTI-resistant virus K101E+K103N+V108VI+V179M+Y181C+E138Q
- Type: cell-based, HIV-1
- protocolConditions: Human immunodeficiency virus 1, BAL, read-out: Antiviral activity-NNRTI-resistant viruses EC50 Ba-L *
pEC50: −log10 of the molar value.
quantityMeasured: pEC50

// below: answered molecules
molecule	pEC50
Cc1cc(C=CC#N)cc(C)c1Nc1nc(Nc2ccc(C#N)cc2)nc(N2CCCCC2)n1 [T7]	< 6.00
Cc1cc(C)c(Nc2ccnc(Nc3ccc(C#N)cc3)n2)c(C)c1 [TMC120, reference compound]	< 6.00

Pending molecule:
Q: # query: pEC50 | item Cc1cc(C=CC#N)cc(C)c1Oc1nc(Nc2ccc(C#N)cc2)nc(N2CCCCC2)n1 [T14] | system: Ba-L K101E + K103N + V108VI + V179M + Y181C + E138Q
A: < 6.00
